Please go through the items and note down their HC50 at 1 h.
test.method.notes: Induction of hemolysis in human RBC assessed as hemoglobin release after 1 hr by microtiter plate reader analysis
Format: cell-based, Erythrocyte
condition.context: red blood cells
Where a SMILES comes first, the peptide text is derived from it. [ ]: non-standard residue; d: D form. 3Abz = Nc1cccc(C(=O)O)c1; Orn = NCCC[CH](N)C(=O)O
Give bare numbers, in µg/mL.

compound: N=C(N)NCCCC(N)C(=O)NC(Cc1c[nH]c2ccccc12)C(=O)Nc1cccc(C(=O)NC(CCCNC(=N)N)C(N)=O)c1 (centres undefined) (H-RW[3Abz]R-NH2; configuration not given here)
parameter: HC50 at 1 h
units.of.measure: µg/mL
reported.value: 500
//
compound: NCCCC(N)C(=O)NC(Cc1c[nH]c2ccccc12)C(=O)NC(Cc1c[nH]c2ccccc12)C(=O)Nc1cccc(C(=O)NC(CCCN)C(=O)NC(CCCN)C(N)=O)c1 (centres undefined) (H-[Orn]WW[3Abz][Orn][Orn]-NH2; configuration not given here)
parameter: HC50 at 1 h
units.of.measure: µg/mL
reported.value: 440

We next turn to a different compound, shown below.
GET /value?item= N=C(N)NCCCC(N)C(=O)NC(CCCNC(=N)N)C(=O)NC(Cc1ccccc1)C(=O)Nc1cccc(C(=O)NC(Cc2ccccc2)C(=O)NC(CCCNC(=N)N)C(N)=O)c1 (centres undefined) (H-RRF[3Abz]FR-NH2; configuration not given here) &field=HC50 at 1 h returns 375

###

Tested on: Bacillus subtilis
test.method.notes: Antibacterial activity against Bacillus subtilis MTCC 2763 assessed as growth inhibition after 18 hrs by CLSI microdilution broth assay
Format: functional
condition.context: MTCC 2763, 18 h
Where a SMILES comes first, the peptide text is derived from it. [ ]: non-standard residue; d: D form. 3Abz = Nc1cccc(C(=O)O)c1; Orn = NCCC[CH](N)C(=O)O
For each of the compounds below, state its MIC.

compound: N=C(N)NCCCC(NC(=O)C(Cc1ccccc1)NC(=O)c1cccc(NC(=O)C(Cc2ccccc2)NC(=O)C(CCCNC(=N)N)NC(=O)C(N)Cc2ccccc2)c1)C(N)=O (centres undefined) (H-FRF[3Abz]FR-NH2; configuration not given here)
MIC: 150 µg/mL
--
compound: NCCCC(NC(=O)C(Cc1ccccc1)NC(=O)c1cccc(NC(=O)C(Cc2ccccc2)NC(=O)C(CCCN)NC(=O)C(N)Cc2ccccc2)c1)C(N)=O (centres undefined) (H-F[Orn]F[3Abz]F[Orn]-NH2; configuration not given here)
MIC: > 200 µg/mL
--
compound: NCCCC(NC(=O)C(CCCN)NC(=O)c1cccc(NC(=O)C(Cc2c[nH]c3ccccc23)NC(=O)C(CCCN)NC(=O)C(N)Cc2c[nH]c3ccccc23)c1)C(N)=O (centres undefined) (H-W[Orn]W[3Abz][Orn][Orn]-NH2; configuration not given here)
MIC: 40 µg/mL

Kindly review the next compound as well.
get_value(item= N=C(N)NCCCC(N)C(=O)NC(Cc1c[nH]c2ccccc12)C(=O)NC(CCCNC(=N)N)C(=O)Nc1cccc(C(=O)NC(Cc2c[nH]c3ccccc23)C(=O)NC(CCCNC(=N)N)C(N)=O)c1 (centres undefined) (H-RWR[3Abz]WR-NH2; configuration not given here) , readout=MIC) returns 125 µg/mL
